So I've got IC50 readings for UniProtKB P00797, take a look.
Sequence (P00797 whole entry): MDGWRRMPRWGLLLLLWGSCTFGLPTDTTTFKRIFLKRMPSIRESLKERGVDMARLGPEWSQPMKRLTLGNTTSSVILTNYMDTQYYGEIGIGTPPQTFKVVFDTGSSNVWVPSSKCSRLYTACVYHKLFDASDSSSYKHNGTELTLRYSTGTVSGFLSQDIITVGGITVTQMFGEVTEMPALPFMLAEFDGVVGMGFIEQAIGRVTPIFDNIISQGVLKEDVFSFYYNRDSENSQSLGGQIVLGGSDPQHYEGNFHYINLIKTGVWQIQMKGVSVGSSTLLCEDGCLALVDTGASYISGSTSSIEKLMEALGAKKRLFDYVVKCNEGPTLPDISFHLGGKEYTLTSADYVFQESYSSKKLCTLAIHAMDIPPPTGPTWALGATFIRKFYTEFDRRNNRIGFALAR

molecule	target.desc	IC50
COc1ccccc1COCCCOc1ccc([C@H]2CCNC[C@H]2NCc2ccc3occc3c2)cc1 (mixture of isomers) [mixture of cis isomers]	UniProtKB P00797	393 nM
COc1ccccc1COCCCOc1ccc([C@H]2CCNC[C@H]2NCc2ccc3cccnc3c2)cc1 (mixture of isomers) [mixture of cis isomers]	UniProtKB P00797	175 nM
COc1ccccc1COCCCOc1ccc([C@H]2CCNC[C@H]2NC(=O)c2ccc3ccccc3c2)cc1 (mixture of isomers) [mixture of cis isomers]	UniProtKB P00797	> 10000 nM
COc1ccccc1COCCCOc1ccc([C@H]2CCNC[C@H]2NCc2ccc3ccccc3c2)cc1	UniProtKB P00797	61 nM
COc1ccccc1COCCCOc1ccc([C@H]2CCNC[C@H]2NCc2ccc(-c3ccccc3)cc2)cc1 (mixture of isomers) [mixture of cis isomers]	UniProtKB P00797	> 10000 nM
COc1ccccc1COCCCOc1ccc([C@H]2CCNC[C@H]2NCc2ccc3c(c2)NCCC3)cc1 [mixture of cis isomers]	UniProtKB P00797	255 nM

Taken from BindingDB's records for doi:10.1016/j.bmc.2004.09.056.
